meta.source: the RNAGym collection of RNA variant scans (doi:10.7554/elife.90254)

B1: LINE1-mini (parent)
chain: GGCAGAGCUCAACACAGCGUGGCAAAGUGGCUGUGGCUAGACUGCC

Variants of: B1
Measurement description: self-cleavage, relative activity (ratio to wild type); higher = more cleavage; in vitro, sequencing; the parent is a self-cleaving ribozyme
Field: self-cleavage. Provide a value for each of the variants that follow.
// return a plain number; no unit text

Query: Look up self-cleavage: GGCAGAGCUCAACACAGCGUGUCAAAGUGGCUGUGGCUAGGCUGCC [G22U A41G]
Response: 0.37

Query: Which self-cleavage is reported for this variant? GGCAGAGCUCAACACAGCGUGGCAAAGUAGCUGUGGCUAGUCUGCC [G29A A41U]
Response: 0.74

Query: If you can, please state the reported self-cleavage value of GACAGAGCUCAACACAGCGUGGCAAAGUGGCUGUGGAUAGACUGCC [G2A C37A] .
Response: 0.35

Query: Given the variant GGCAGAGCUCAACACUGCGUGGCAAAGCGGCUGUGGCUAGACUGCC [A16U U28C] , what is its reported self-cleavage?
Response: 0.55

Query: Return reported self-cleavage; argument: GGCAGAGUUCAACAUAGCGUGGCAAAGUGGCUGUGGCUAGACUGCC [C8U C15U]
Response: 0.25

Query: Which measured self-cleavage value corresponds to GGCAGAGCUCAACACAGCGUGGCAAAGUGGCUGCGGCUAGACAGCC [U34C U43A] ?
Response: 0.11

Query: Requested read-out: self-cleavage. Entry: GGCGGAGCUCAACACAGCGUGGCAAAGUGGCUGUGGCUAGAGUGCC [A4G C42G]
Response: 0.02

Query: Entry GGCAGAUCUCAACACAGCGUGGCCAAGUGGCUGUGGCUAGACUGCC [G7U A24C] : reported self-cleavage = ?
Response: 0.06

Query: Entry GGCAGAGCUCAACACAGCGUGGCAAAGUGACUGUGGCUCGACUGCC [G30A A39C] has what self-cleavage?
Response: 0.4

Query: For GGCAGAGCUCAACACAGCGUGGCUAAGUGGCUGUGGCUAGACUGCU [A24U C46U] , what is its reported self-cleavage?
Response: 1.09

Query: Recorded self-cleavage of GGCAGAGCUCAGCACAGCGUGGCAAAGUGGCUGUAGCUAGACUGCC [A12G G35A] , please.
Response: 0.02

Query: I am curious: what self-cleavage value has been reported for GGCAGAGCUCAACACAGUGUGGCAAAGUGGCUGUGGCUAGACAGCC [C18U U43A] ?
Response: 0.06

Query: What value of measured self-cleavage is listed for GGCAGAGCUCAACACAGCGUGGCAAAGUGUCUGUGGCUAGACUUCC [G30U G44U] ?
Response: 0.21

Query: Value lookup for self-cleavage; key = GGCAGAGCUCGACACAGCGUGGCAAAGUUGCUGUGGCUAGACUGCC [A11G G29U]
Response: 0.03

Query: Please look up its self-cleavage: GGCAGAGCUCAACACAGCGUGGCAAAGUCGCUGUGGCUAAACUGCC [G29C G40A]
Response: 0.07

Query: Requested read-out: self-cleavage. Entry: GGCAGUGCUCAACACAACGUGGCAAAGUGGCUGUGGCUAGACUGCC [A6U G17A]
Response: 0.11

Query: Requested read-out: self-cleavage. Entry: GGCAGAGUUCAACACAGCGUGGCAAAGUGGCUGUGGCUGGACUGCC [C8U A39G]
Response: 0.05

Query: Which self-cleavage reading was recorded for the variant GGCAGAGCUCAACACAGCGUCGCAAAGUGGCUGUGGCUAGAAUGCC [G21C C42A] ?
Response: 0.19

Query: Please give the measured self-cleavage for this variant: GGCAGAGCUCAACACACCGUGGCAAAGUGGUUGUGGCUAGACUGCC [G17C C31U]
Response: 0.16

Query: Endpoint output: self-cleavage of GGCAGAGCUCAACACAGCGUGGCAAAGUGGCUGUGGCUAGUCGGCC [A41U U43G] . Value?
Response: 0.17

Query: Any idea what its self-cleavage is? The variant is GGCAGAGCUCAACGCAGGGUGGCAAAGUGGCUGUGGCUAGACUGCC [A14G C18G]
Response: 0.21

Query: Data request, read-out self-cleavage, for GGCAGAGCUCAACACAGUGUGGCACAGUGGCUGUGGCUAGACUGCC [C18U A25C]
Response: 0.86
